- Test Target: T1, mouse ICOS-mFc (Chimerigen) (mouse, UniProt Q9WVS0 21-141, limits assumed)
- T1 construct: also called mouse ICOS receptor; mouse ICOS Receptor; not shown: mouse Fc of the bought construct
- T1 sequence: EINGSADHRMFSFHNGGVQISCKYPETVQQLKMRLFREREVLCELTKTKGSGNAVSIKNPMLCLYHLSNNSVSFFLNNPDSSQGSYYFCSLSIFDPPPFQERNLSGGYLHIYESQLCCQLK
- Procedure Text: HTRF neutralisation of Alexa 647 mouse B7-H2 binding to mouse ICOS-mFc; human IgG4.PE; mean, n = 3
Outcome Measure: pIC50
Numbers only, as −log10 of the molar value.

Binder | pIC50
STIM003 human IgG4.PE (antibody, V domains shown, Human IgG4.PE (null-effector) format) VH: EVQLVESGGGVVRPGGSLRLSCVASGVTFDDYGMSWVRQAPGKGLEWVSGINWNGGDTDYSDSVKGRFTISRDNAKNSLYLQMNSLRAEDTALYYCARDFYGSGSYYHVPFDYWGQGILVTVSS VL: EIVLTQSPGTLSLSPGERATLSCRASQSVSRSYLAWYQQKRGQAPRLLIYGASSRATGIPDRFSGDGSGTDFTLSISRLEPEDFAVYYCHQYDMSPFTFGPGTKVDIK | 9.70
STIM005 human IgG4.PE (antibody, V domains shown, Human IgG4.PE (null-effector) format) VH: QVQLVQSGAEVKKPGASVKVSCKASGYTFNSYGIIWVRQAPGQGLEWMGWISVHNGNTNCAQKLQGRVTMTTDTSTSTAYMELRSLRTDDTAVYYCARAGYDILTDFSDAFDIWGHGTMVTVSS VL: DIQMTQSPSSLSASVGDRVTITCRASQNINNFLNWYQQKEGKGPKLLIYAASSLQRGIPSTFSGSGSGTDFTLTISSLQPEDFATYICQQSYGIPWVGQGTKVEIK | 9.52

Lab note: next binder to report on.
Which pIC50 reading was recorded for the binder STIM002-B human IgG4.PE (antibody, V domains shown, Human IgG4.PE (null-effector) format) VH: QVQLVQSGGEVKKPGASVKVSCKASGYTFTSYGFSWVRQAPGQGLEWMGWISAYNGNTNYAQKLQGRVTMTTDTSTSTAYMELRSLRSDDTAVYYCARSTYFYGSGTLYGMDVWGQGTTVTVSS VL: DIVMTQSPLSLPVTPGEPASISCRSSQSLLHSDGYNCLDWYLQKPGQSPQLLIYLGSTRASGFPDRFSGSGSGTDFTLKISRVEAEDVGVYYCMQALQTPCSFGQGTKLEIK ?
7.36
